Every entry's value here was drawn from paper PMC5773532.

target: E. coli SdhA subunit (Escherichia coli); experiment: Optical difference spectroscopy, ligand binding to isolated SdhA subunit; conditions: read-out: Kd^malonate
Sequence (P0AC41 whole entry): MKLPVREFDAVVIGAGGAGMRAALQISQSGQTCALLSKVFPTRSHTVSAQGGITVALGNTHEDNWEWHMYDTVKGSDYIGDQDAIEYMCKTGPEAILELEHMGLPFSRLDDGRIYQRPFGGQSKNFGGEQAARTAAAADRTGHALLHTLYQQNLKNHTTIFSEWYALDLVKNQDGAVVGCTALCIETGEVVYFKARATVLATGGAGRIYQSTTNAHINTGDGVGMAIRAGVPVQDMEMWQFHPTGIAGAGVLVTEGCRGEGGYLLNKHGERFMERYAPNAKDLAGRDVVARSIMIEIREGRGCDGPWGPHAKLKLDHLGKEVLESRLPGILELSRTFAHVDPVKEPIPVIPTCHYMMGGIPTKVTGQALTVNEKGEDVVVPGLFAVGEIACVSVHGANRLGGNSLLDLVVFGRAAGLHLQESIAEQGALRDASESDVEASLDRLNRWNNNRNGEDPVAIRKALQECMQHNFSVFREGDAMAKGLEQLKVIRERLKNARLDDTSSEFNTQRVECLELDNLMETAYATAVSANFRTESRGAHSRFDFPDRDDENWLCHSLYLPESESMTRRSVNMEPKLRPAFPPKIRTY
Reported Metric: Kd (µM)
Lab book: enter the figure in µM, no units written.

Query: Given the compound O=C(O)CC(=O)O [malonate] , what is its reported Kd?
Response: 11
